Give measured IC50 for each item. Keep answers brief.
- Tested on: T. cruzi-infected H9C2 cardiomyocytes, high-content imaging
- method_description: intracellular T. cruzi amastigote inhibition, imaging, H9C2 host cardiomyocytes, host toxicity (AID 1159565);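 further: infected cells incubated 72 h after plating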
- settings: measured here: amastigotes per cell

QUERY: State the recorded IC50 for this entry: COc1ccc(-c2nc3ncccc3o2)cc1NC(=O)c1cccs1
RESULT: 2 µM

QUERY: For the compound COc1ccc(-c2cnc(C)o2)cc1S(=O)(=O)Nc1ccc(C)cc1C , what IC50 is on record?
RESULT: 3.2 µM

QUERY: What value of measured IC50 is listed for COc1ncc(-c2ccc3nccc(-c4ccncc4)c3c2)cc1NS(C)(=O)=O ?
RESULT: 13 µM

QUERY: Please look up its IC50: Cc1[nH]c2ccccc2c(=O)c1Cc1c(C)[nH]c2ccccc2c1=O
RESULT: 1 µM

QUERY: Could you share which IC50 value was measured for O=C(N[C@H](CO)c1ccccc1)c1ccc(-c2c[nH]c3nccc(C(F)(F)F)c23)s1 ?
RESULT: 10 µM

QUERY: Requested field: IC50. Item: COc1ccc(C(=O)Nc2c(C)nn(COc3cccc(C(F)(F)F)c3)c2C)cc1
RESULT: 25 µM

QUERY: For Cc1cc(C)c(C#N)c(SCC(=O)c2ccc3c(c2)OCO3)n1 , what is its reported IC50?
RESULT: 0.4 µM

QUERY: Using the record for CCn1nccc1CN(C)C(=O)C=Cc1ccc(Cl)cc1 , report its IC50.
RESULT: 0.32 µM

QUERY: I would be grateful if you could share the reported IC50 for NC(N)=Nc1nc(-c2ccc(NC(N)=NCCN3CCCC3)cc2)cs1 .
RESULT: > 50 µM

QUERY: For N#Cc1ccc(Br)cc1[N+](=O)[O-] , what is its reported IC50?
RESULT: 0.063 µM

QUERY: Which IC50 value is on record for COc1ccc2nc(N(Cc3cccnc3)C(=O)C3CCC3)sc2c1 ?
RESULT: 0.1 µM

---

For each record, write down the corresponding IC50.
- Tested on: T. cruzi-infected H9C2 cardiomyocytes, high-content imaging
- method_description: intracellular T. cruzi amastigote inhibition, imaging, H9C2 host cardiomyocytes, host toxicity (AID 1159565);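 further: infected cells incubated 72 h after plating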
- settings: measured here: amastigotes per cell
Answer format: numeric, nM implied, no suffix.

QUERY: Bench note: what IC50 did O=c1ccc2ccc(F)c3c2n1C[C@H]3CN1CCN(CC(O)c2cc3c(cn2)OCS3)CC1 (stereo not given in full) show?
RESULT: 320

QUERY: Dear colleague, I am looking for the recorded IC50 of the following compound: Cc1nc2c(-c3n[nH]c(-c4ccccc4N)n3)cccn2c1C
RESULT: 1600

QUERY: Recorded IC50 for Cc1cc(N2CCc3ccccc3C2)nc(Nc2ccc(S(=O)(=O)N3CCOCC3)cc2)n1 , please?
RESULT: 25000

QUERY: Record request: IC50 value, item Cc1cc2nc(N3CC[C@H]3C(N)=O)nc(Nc3cc(C4CC4)[nH]n3)c2s1
RESULT: 4000

QUERY: Need IC50, item O=C(CCCNC(=O)c1ccc(Cl)cc1)Nc1nc(-c2ccccn2)cs1
RESULT: 10000

QUERY: Requested field: IC50. Item: CCCCN(C(=O)c1ccc(NC(=O)C(C)C)cc1)c1ccccc1
RESULT: 10000

QUERY: Query: IC50; subject: CCN(CC)S(=O)(=O)c1ccc(C(=O)Nc2cc(C)nn2-c2nc(C)c(C)c(=O)[nH]2)cc1
RESULT: 320

QUERY: Return reported IC50; argument: COc1ccc2c(Cl)c(C(=O)N3CCC3)sc2c1Cl
RESULT: 790

QUERY: GET /values?readout=IC50&item= NC(=O)c1ccsc1NC(=O)c1ccc([N+](=O)[O-])s1
RESULT: 100

QUERY: Which measured IC50 value corresponds to COc1ccc(CN2C(=O)C(O)(CC(=O)c3ccncc3)c3cc(Br)ccc32)cc1OC (stereo not given) ?
RESULT: 13000
